Tested on: Nucleic Acid
testDetails: Binding affinity to human 21-TT G-quadruplex DNA structure assessed as bound DNA at 5:10 DNA to drug ratio by electrospray ionization mass spectrometry
Format: nucleic-acid assay
Reported values of Activity for individual entries
Answer format: numeric, % implied, no suffix.

Some entries whose results are on file:
>>> measuredresult("CN1CCN(c2cc3c4c(ccc5c6c(N7CCN(C)CC7)cc7c8c(ccc(c2c45)c86)C(=O)N(CCN2CCCCC2)C7=O)C(=O)N(CCN2CCCCC2)C3=O)CC1")
77
>>> measuredresult("CNCCOCCN1C(=O)c2ccc3c4c(N5CCCCC5)cc5c6c(ccc(c7c(N8CCCCC8)cc(c2c37)C1=O)c64)C(=O)N(CCOCCNC)C5=O")
37

As a next step, examine the compound that follows.
Briefly, Activity measured for `O=C1c2ccc3c4c(N5CCCCC5)cc5c6c(ccc(c7c(N8CCCCC8)cc(c2c37)C(=O)N1CCOCCN1CCCCC1)c64)C(=O)N(CCOCCN1CCCCC1)C5=O` : 34
